For each entry below, report its relative binding (IC50 of standard peptide / IC50 of test peptide) value.
Target: T1, HLA-DR9 (DRB1*0901) (human)
T1 chain 1: not shown
T1 chain 2: not shown
Assay: purified HLA-DR, inhibition of 125I standard peptide, gel filtration

Examples with their reported relative binding (IC50 of standard peptide / IC50 of test peptide) follow.
binder | recorded result
FTGLTHIDAHFLSQT (modifications not checked) | 0.0056
GNWFGCTWMNSTGFT (modifications not checked) | 0.027
ASCLRKLGVPPLRVW (modifications not checked) | 0.0007

Each binder below has a reported value. Please supply its relative binding (IC50 of standard peptide / IC50 of test peptide).
1. VYCFTPSPVVVGTTD (modifications not checked)
2. LELITSCSSNVSVAH (modifications not checked)

Result:
1: 0.18; 2: 0.033
